TARGET_ENTITY: Gal(b1-4)GlcNAc(b1-2)Man
ASSAY_METHOD_TEXT: glycan array binding signal (z-score within array); higher = stronger binding
SETUP_CONDITIONS: glycan notation: IUPAC condensed, linker removed
The sample as a whole holds a higher share of the strongest signals than the screen did.
EXPERIMENTAL_ENDPOINT: glycan array binding signal (z-score)

Check out these entries, answers already filled in.
Q: # query: glycan array binding signal (z-score) of entry Gal 1 (Mus musculus), P16045 (protein) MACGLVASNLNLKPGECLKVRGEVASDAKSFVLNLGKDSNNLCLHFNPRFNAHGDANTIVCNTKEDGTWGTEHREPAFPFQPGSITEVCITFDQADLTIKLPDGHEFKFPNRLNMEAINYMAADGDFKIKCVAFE
Ans: -0.253

Q: # query: glycan array binding signal (z-score) of entry Cohesin-marm-DC-ASGPR-CRD (protein) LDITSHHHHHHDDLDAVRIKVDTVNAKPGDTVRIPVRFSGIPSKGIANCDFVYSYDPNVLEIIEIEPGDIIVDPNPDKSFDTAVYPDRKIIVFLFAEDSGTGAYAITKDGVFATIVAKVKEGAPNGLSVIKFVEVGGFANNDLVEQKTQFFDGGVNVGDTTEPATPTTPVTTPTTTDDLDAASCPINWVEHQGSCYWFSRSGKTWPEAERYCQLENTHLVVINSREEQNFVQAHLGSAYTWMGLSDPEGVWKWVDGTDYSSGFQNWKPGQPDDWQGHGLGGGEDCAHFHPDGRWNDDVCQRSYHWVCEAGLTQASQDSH
Ans: 3.13

***
Q: # query: glycan array binding signal (z-score) of entry Threefoil (Haloarcula marismortui) (protein) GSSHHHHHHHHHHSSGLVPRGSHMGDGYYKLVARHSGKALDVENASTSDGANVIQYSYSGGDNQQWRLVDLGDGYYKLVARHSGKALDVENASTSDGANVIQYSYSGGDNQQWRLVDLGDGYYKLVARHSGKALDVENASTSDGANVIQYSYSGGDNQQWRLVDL
Ans: -0.105

Q: # query: glycan array binding signal (z-score) of entry PhypaEULS3 (Physcomitrella patens) (protein) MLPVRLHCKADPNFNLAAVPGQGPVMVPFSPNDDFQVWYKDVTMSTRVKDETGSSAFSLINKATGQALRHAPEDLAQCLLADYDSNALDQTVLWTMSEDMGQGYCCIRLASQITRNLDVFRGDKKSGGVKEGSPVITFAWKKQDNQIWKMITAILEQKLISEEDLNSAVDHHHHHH
Ans: 1.11

Q: # query: glycan array binding signal (z-score) of entry ACA (Amaranthus caudatus) (protein) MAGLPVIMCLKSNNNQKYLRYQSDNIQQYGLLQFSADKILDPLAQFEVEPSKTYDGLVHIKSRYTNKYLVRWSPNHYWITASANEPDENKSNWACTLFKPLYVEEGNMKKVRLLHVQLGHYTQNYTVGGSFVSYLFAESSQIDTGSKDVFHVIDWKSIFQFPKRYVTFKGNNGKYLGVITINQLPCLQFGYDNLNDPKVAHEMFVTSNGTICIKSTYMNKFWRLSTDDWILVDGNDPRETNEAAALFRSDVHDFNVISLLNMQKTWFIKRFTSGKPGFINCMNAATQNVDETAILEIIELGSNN
Ans: -0.376
